Item-by-item account of IC50 (read off the curve)
tested.target: T1, human PD-L1 expressed on 300.19 cells (human, UniProt Q9NZQ7 19-290)
T1 construct: whole, on cells; also called huPD-L1; PD-L1-expressing 300.19 cells
T1 sequence (Q9NZQ7 19-290): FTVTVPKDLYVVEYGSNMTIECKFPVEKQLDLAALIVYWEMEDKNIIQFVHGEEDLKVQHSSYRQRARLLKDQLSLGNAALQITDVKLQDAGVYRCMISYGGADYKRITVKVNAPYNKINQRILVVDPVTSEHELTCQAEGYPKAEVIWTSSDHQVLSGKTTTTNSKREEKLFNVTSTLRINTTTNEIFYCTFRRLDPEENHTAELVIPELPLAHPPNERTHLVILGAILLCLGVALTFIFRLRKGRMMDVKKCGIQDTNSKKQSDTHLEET
assay.notes: blocking of PE-labelled PD-1-Ig (0.7 µg/mL) binding to PD-L1-expressing 300.19 cells, FACS, 4 C, 4 h

binder: BAP058-hum04 (antibody, human IgG4 S228P, kappa, V domains shown, Humanized IgG4(S228P)/human kappa mAb expressed in CHO cells) VH: EVQLVQSGAEVKKPGESLRISCKGSGYTFTSYWMYWVRQAPGQGLEWMGRIDPNSGSTKYNEKFKNRVTISVDTSKNQFSLKLSSVTAADTAVYYCARDYRKGLYAMDYWGQGTTVTVSS VL: EIVLTQSPDFQSVTPKEKVTITCKASQDVGTAVAWYLQKPGQSPQLLIYWASTRHTGVPSRFSGSGSGTDFTFTISSLQPEDIATYYCQQYNSYPLTFGQGTKVEIKR
IC50 (read off the curve): ~0.04 µg/mL

binder: BAP058-hum03 (antibody, human IgG4 S228P, kappa, V domains shown, Humanized IgG4(S228P)/human kappa mAb expressed in CHO cells) VH: EVQLVQSGAEVKKPGATVKISCKVSGYTFTSYWMYWVRQATGQGLEWMGRIDPNSGSTKYNEKFKNRVTITADKSTSTAYMELSSLRSEDTAVYYCARDYRKGLYAMDYWGQGTTVTVSS VL: EIVLTQSPDFQSVTPKEKVTITCKASQDVGTAVAWYLQKPGQSPQLLIYWASTRHTGVPDRFSGSGSGTDFTLKISRVEAEDVGVYYCQQYNSYPLTFGQGTKVEIKR
IC50 (read off the curve): ~0.04 µg/mL

binder: BAP058-hum07 (antibody, human IgG4 S228P, kappa, V domains shown, Humanized IgG4(S228P)/human kappa mAb expressed in CHO cells) VH: QVQLVQSGAEVKKPGASVKVSCKASGYTFTSYWMYWIRQSPSRGLEWLGRIDPNSGSTKYNEKFKNRFTISRDDSKNTAYLQMNSLKTEDTAVYYCARDYRKGLYAMDYWGQGTTVTVSS VL: EIVLTQSPATLSLSPGERATLSCKASQDVGTAVAWYLQKPGQSPQLLIYWASTRHTGIPPRFSGSGYGTDFTLTINNIESEDAAYYFCQQYNSYPLTFGQGTKVEIKR
IC50 (read off the curve): ~0.04 µg/mL
